Molecular target: human Y4 receptor (Homo sapiens, UniProt P50391)
Construct: expressed in transfected cells
Sequence (P50391 whole entry): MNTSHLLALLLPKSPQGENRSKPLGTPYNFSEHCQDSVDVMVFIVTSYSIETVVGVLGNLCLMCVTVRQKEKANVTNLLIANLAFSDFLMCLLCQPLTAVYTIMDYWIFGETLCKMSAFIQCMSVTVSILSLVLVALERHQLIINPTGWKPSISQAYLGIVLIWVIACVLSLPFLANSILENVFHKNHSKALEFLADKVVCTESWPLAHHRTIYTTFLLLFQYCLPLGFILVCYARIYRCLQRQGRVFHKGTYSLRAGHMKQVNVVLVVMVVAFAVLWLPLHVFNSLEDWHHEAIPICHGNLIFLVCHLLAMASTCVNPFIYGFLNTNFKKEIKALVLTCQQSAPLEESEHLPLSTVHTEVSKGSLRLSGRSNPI
Assay: NPY4 cAMP HTRF Agonist Assay (inhibitory cAMP assay, Gi activation by Y4 agonism)
Type: cell-based
Settings: second TABLE 1, R2 is Phenyl-CF3; read-out: hY4 CAMP EC50
measurement.name: log10 EC50 (log10 of the value in µM)

molecule: CCCCNC(=O)c1cccc(-c2ccnc(N[C@@H]3CCCC[C@H]3N[C@H]3CCCN(c4ccc(C(F)(F)F)cc4)C3)c2)c1 [Example 141]
log10 EC50: -0.64
//
molecule: CC(C)(O)C#Cc1ccnc(N[C@@H]2CCCC[C@H]2N[C@H]2CCCN(c3ccc(C(F)(F)F)cc3)C2)c1 [Example 162]
log10 EC50: -0.26
//
molecule: CC(C)CNC(=O)c1cccc(-c2ccnc(N[C@@H]3CCCC[C@H]3N[C@H]3CCCN(c4ccc(C(F)(F)F)cc4)C3)c2)c1 [Example 148]
log10 EC50: -0.69
//
molecule: FC(F)(F)c1ccc(N2CCC[C@H](N[C@@H]3CCCC[C@H]3Nc3cc(-c4cccc(C5CCCN5)c4)ccn3)C2)cc1 (stereo partly shown) [Example 183]
log10 EC50: -0.82
//
molecule: FC(F)(F)c1ccc(N2CCC[C@H](N[C@@H]3CCCC[C@H]3Nc3cc(-c4cccc5c4CCNC5)ccn3)C2)cc1 [Example 145]
log10 EC50: -0.04
//
molecule: NC(=O)c1cccc(-c2ccnc(N[C@@H]3CCCC[C@H]3N[C@H]3CCCN(c4ccc(C(F)(F)F)cc4)C3)c2)c1 [Example 119]
log10 EC50: -2.40
//
molecule: FC(F)(F)c1ccc(N2CCC[C@H](N[C@@H]3CCCC[C@H]3Nc3ncc(Cl)cn3)C2)cc1 [Example 196]
log10 EC50: -0.09

====

A collection of compounds and their measured EC50
Target: human Y4 receptor (Homo sapiens, UniProt P50391)
Construct: expressed in transfected cells
Assay: NPY4 cAMP HTRF Agonist Assay (inhibitory cAMP assay, Gi activation by Y4 agonism)
Format: cell-based
Details: human Y4 receptor, cAMP; read-out: hY4 CAMP EC50

chem.smiles: Cc1noc(-c2ccc(N3CCC[C@H](N[C@@H]4CCCC[C@H]4Nc4cc(-c5cccc(OC(F)(F)F)c5)ccn4)C3)cc2)n1
EC50 (nM): 314

chem.smiles: FC(F)(F)Oc1ccc(-c2cnc(N[C@@H]3CCCC[C@H]3N[C@H]3C[C@@H]4C[C@H]3N(c3cc(Cl)ncn3)C4)o2)cc1
EC50 (nM): 82

chem.smiles: Cc1nc(-c2ccc(N3C[C@@H]4C[C@H](N[C@@H]5CCCC[C@H]5Nc5nccc(-c6ccccc6)n5)[C@H]3C4)cc2)no1
EC50 (nM): 9

====

Target: human Y4 receptor (Homo sapiens, UniProt P50391)
Construct: expressed in transfected cells
Assay: NPY4 cAMP HTRF Agonist Assay (inhibitory cAMP assay, Gi activation by Y4 agonism)
Format: cell-based
Conditions: human Y4 receptor, cAMP; read-out: hY4 CAMP EC50
Experimental: NPY4 cAMP HTRF Agonist Assay The functionality of the compound at Y4 receptor was analyzed using a inhibitory cAMP assay (CISBIO, HTRF cAMP kit #62AM4PEC) to measure the Gi activation by Y4 agonism. The human Y4 stable CHO clonal cells were maintained in culture medium (F-12 containing 10% Fetal Bovine Serum, […] GENETICIN®, […] Zeocin). […] The plates were incubated for another 1 hour at room temperature and read on the EnVision Multilabel Plate Reader. […]
pEC50: −log10 of the molar value.
Classify by measured pEC50: met if it is equal to or exceeds 8, not met if it is smaller.

chem.smiles: FC(F)(F)Oc1ccc(-c2cnc(N[C@@H]3CCCC[C@H]3N[C@H]3CCCN(c4ccc5ncnn5c4)C3)o2)cc1
assayed.system: human Y4 receptor (Homo sapiens, UniProt P50391)
qualitative.label: not met
--
chem.smiles: Cc1nnc(-c2ccc(N3CCC[C@H](N[C@@H]4CCCC[C@H]4Nc4ncc(-c5ccccc5OC(F)(F)F)o4)C3)cc2)o1
assayed.system: human Y4 receptor (Homo sapiens, UniProt P50391)
qualitative.label: met
--
chem.smiles: O=C(NC1CC1)c1cccc(-c2cnc(N[C@@H]3CCCC[C@H]3N[C@H]3CCCN(c4ccc5ncnn5c4)C3)o2)c1
assayed.system: human Y4 receptor (Homo sapiens, UniProt P50391)
qualitative.label: not met
--
chem.smiles: NC(=O)c1cccc(-c2cnc(N[C@@H]3CCCC[C@H]3N[C@H]3CCCN(c4ccc(F)c(F)c4)C3)o2)c1
assayed.system: human Y4 receptor (Homo sapiens, UniProt P50391)
qualitative.label: met
--
chem.smiles: COC(=O)Nc1cccc(-c2cnc(N[C@@H]3CCCC[C@H]3N[C@H]3CCCN(c4cnc(C(F)(F)F)cn4)C3)o2)c1
assayed.system: human Y4 receptor (Homo sapiens, UniProt P50391)
qualitative.label: met
--
chem.smiles: N#Cc1cnc(N2CCC[C@H](N[C@@H]3CCCC[C@H]3Nc3cc(-c4cccc(C(N)=O)c4)ccn3)C2)cn1
assayed.system: human Y4 receptor (Homo sapiens, UniProt P50391)
qualitative.label: not met
--
chem.smiles: Cc1nc2ccc(N3CCC[C@H](N[C@@H]4CCCC[C@H]4Nc4cc(-c5cccc(C(N)=O)c5)ccn4)C3)cn2n1
assayed.system: human Y4 receptor (Homo sapiens, UniProt P50391)
qualitative.label: not met
--
chem.smiles: NC(=O)c1cccc(-c2ccnc(N[C@@H]3CCCC[C@H]3N[C@H]3C[C@@H]4C[C@H]3N(c3ncc(C(F)(F)F)cn3)C4)c2)c1
assayed.system: human Y4 receptor (Homo sapiens, UniProt P50391)
qualitative.label: not met
--
chem.smiles: NC(=O)c1cccc(-c2cnc(N[C@@H]3CCCC[C@H]3N[C@H]3C[C@@H]4C[C@H]3N(c3cnc(C(F)(F)F)nc3)C4)o2)c1
assayed.system: human Y4 receptor (Homo sapiens, UniProt P50391)
qualitative.label: not met
--
chem.smiles: Cn1cnc(-c2ccc(N3CCC[C@H](N[C@@H]4CCCC[C@H]4Nc4cc(-c5ccc(F)c(F)c5)ccn4)C3)cc2)n1
assayed.system: human Y4 receptor (Homo sapiens, UniProt P50391)
qualitative.label: not met
--
chem.smiles: COC(=O)Nc1cccc(-c2ccnc(N[C@@H]3CCCC[C@H]3N[C@H]3CCCN(c4cnc(-c5noc(C)n5)nc4)C3)c2)c1
assayed.system: human Y4 receptor (Homo sapiens, UniProt P50391)
qualitative.label: met
